Values from ChEMBL document CHEMBL6127045

Tested on: DU-145
assay-notes: cells
conditions: Homo sapiens, DU-145, 72 h
Description: Antiproliferative activity against human DU-145 cells assessed as reduction in cell growth incubated for 72 hrs by Celltiter-glo assay
measured-quantity: IC50 (nM)

| structure-smiles-string | measured-quantity | obs-value |
| --- | --- | --- |
| O=C(Nc1ccc(-c2cc(N3CCOCC3)c3nc(N4CCOCC4)sc3c2)cc1)Nc1cccnc1 | IC50 | 620 |

====

System: MCF7
assay-notes: Anticancer activity against human MCF7 cells assessed as inhibition of cell growth incubated for 48 hrs by MTT assay
Type: functional, cell-based
conditions: MCF7, 48 h
pIC50: −log10 of the molar value.

| structure-smiles-string | pIC50 |
| --- | --- |
| O=C(Cn1cc(CCCO)nn1)N1CCN(c2nc3ccccc3s2)CC1 | 4.48 |
